assay: UV absorption spectrum in ethanol; type: physicochemical; settings: at λmax
EXPERIMENTAL ENDPOINT: UV E1%
Form field (numeric): enter value without unit.

C[Si](C)(C)O[Si](C)(CCCNC(=O)/C(C#N)=C/C=C(c1ccccc1)c1ccccc1)O[Si](C)(C)C [Example 5]    515
C[Si](C)(C)O[Si](C)(CCCOC(=O)/C(C#N)=C\C=C(c1ccccc1)c1ccccc1)O[Si](C)(C)C [Example 3]    574
CCOC(=O)/C(=C/C=C(c1ccccc1)c1ccccc1)C(=O)OCC(C)C[Si](C)(O[Si](C)(C)C)O[Si](C)(C)C (centres unmarked) [Example 1]    660
CC(COC(=O)C(=CC=C(c1ccccc1)c1ccccc1)C(=O)OCC(C)C[Si](C)(O[Si](C)(C)C)O[Si](C)(C)C)C[Si](C)(O[Si](C)(C)C)O[Si](C)(C)C (centres unmarked) [Example 6]    346

API: the following record is the query input.
The compound listed as CCOC(=O)/C(=C\C=C(c1ccccc1)c1ccccc1)C(=O)NCCC[Si](C)(O[Si](C)(C)C)O[Si](C)(C)C [Example 7] has a reported UV E1% of 542

====

experiment: UV absorption spectrum in ethanol; type: physicochemical
EXPERIMENTAL ENDPOINT: UV λmax (nm)
Please reply with the bare figure in nm and do not write the unit itself.

CC(COC(=O)C(=CC=C(c1ccccc1)c1ccccc1)C(=O)OCC(C)C[Si](C)(O[Si](C)(C)C)O[Si](C)(C)C)C[Si](C)(O[Si](C)(C)C)O[Si](C)(C)C (centres unmarked) [Example 6]    330
C[Si](C)(C)O[Si](C)(CCCNC(=O)/C(C#N)=C/C=C(c1ccccc1)c1ccccc1)O[Si](C)(C)C [Example 5]    351
CCOC(=O)/C(=C/C=C(c1ccccc1)c1ccccc1)C(=O)OCC(C)C[Si](C)(O[Si](C)(C)C)O[Si](C)(C)C (centres unmarked) [Example 1]    333
CCOC(=O)/C(=C\C=C(c1ccccc1)c1ccccc1)C(=O)NCCC[Si](C)(O[Si](C)(C)C)O[Si](C)(C)C [Example 7]    335

The molecule listed as C[Si](C)(C)O[Si](C)(CCCOC(=O)/C(C#N)=C\C=C(c1ccccc1)c1ccccc1)O[Si](C)(C)C [Example 3] has a reported UV λmax of 358

====

experiment: UV absorption spectrum in ethanol; format: physicochemical; conditions: at λmax
Below, each entry is listed alongside its reported UV εmax.

CCOC(=O)/C(=C\C=C(c1ccccc1)c1ccccc1)C(=O)NCCC[Si](C)(O[Si](C)(C)C)O[Si](C)(C)C [Example 7]    31 650
C[Si](C)(C)O[Si](C)(CCCNC(=O)/C(C#N)=C/C=C(c1ccccc1)c1ccccc1)O[Si](C)(C)C [Example 5]    27 650
C[Si](C)(C)O[Si](C)(CCCOC(=O)/C(C#N)=C\C=C(c1ccccc1)c1ccccc1)O[Si](C)(C)C [Example 3]    30 874
CCOC(=O)/C(=C/C=C(c1ccccc1)c1ccccc1)C(=O)OCC(C)C[Si](C)(O[Si](C)(C)C)O[Si](C)(C)C (centres unmarked) [Example 1]    39 530

The compound listed as CC(COC(=O)C(=CC=C(c1ccccc1)c1ccccc1)C(=O)OCC(C)C[Si](C)(O[Si](C)(C)C)O[Si](C)(C)C)C[Si](C)(O[Si](C)(C)C)O[Si](C)(C)C (centres unmarked) [Example 6] has a reported UV εmax of 28 650
